biological target: T1, Dimeric Monkey Ang-2FD conjugated to human IgG1 (monkey (Macca fascicularis); human); test: SPR, captured Ab, RT
T1 construct: also called Monkey Ang-2FD-hFc
T1 sequence (chain, as listed by the source limits assumed): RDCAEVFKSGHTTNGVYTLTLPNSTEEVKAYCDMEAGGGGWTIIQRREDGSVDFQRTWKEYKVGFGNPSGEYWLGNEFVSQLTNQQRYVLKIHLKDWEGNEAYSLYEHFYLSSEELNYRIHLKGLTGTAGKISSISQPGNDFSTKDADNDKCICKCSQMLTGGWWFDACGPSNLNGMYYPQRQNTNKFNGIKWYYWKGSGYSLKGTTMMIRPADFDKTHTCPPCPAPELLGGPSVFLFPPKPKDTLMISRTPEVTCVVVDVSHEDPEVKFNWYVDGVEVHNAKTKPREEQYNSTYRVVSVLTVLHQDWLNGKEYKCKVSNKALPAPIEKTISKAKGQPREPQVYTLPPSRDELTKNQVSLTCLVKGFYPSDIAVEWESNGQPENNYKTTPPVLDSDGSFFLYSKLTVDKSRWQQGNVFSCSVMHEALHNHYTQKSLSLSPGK
RECORDED_ENDPOINT: pKd
Friendly reminder that pKd comes from taking -log10 of the concentration in mol/L.

Recorded pKd, per entry:
Task: Find the recorded pKd belonging to H1M724N (antibody, V domains shown) VH: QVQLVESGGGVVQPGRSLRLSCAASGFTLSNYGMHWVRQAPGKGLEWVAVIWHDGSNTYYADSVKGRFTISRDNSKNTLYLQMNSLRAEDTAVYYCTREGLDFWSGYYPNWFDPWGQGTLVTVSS VL: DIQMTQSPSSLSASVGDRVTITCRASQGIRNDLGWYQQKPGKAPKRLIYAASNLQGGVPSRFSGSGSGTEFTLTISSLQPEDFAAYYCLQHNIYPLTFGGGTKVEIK and report it.
Result: 9.14

Task: Find the recorded pKd belonging to H1H695P (antibody, V domains shown) VH: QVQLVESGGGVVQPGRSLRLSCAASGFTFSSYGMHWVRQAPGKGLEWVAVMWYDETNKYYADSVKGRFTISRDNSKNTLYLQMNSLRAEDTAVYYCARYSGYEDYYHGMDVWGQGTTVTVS VL: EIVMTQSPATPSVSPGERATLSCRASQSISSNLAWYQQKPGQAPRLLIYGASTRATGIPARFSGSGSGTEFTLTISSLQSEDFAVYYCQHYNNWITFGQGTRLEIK and report it.
Result: 9.36

Task: Find the recorded pKd belonging to H2M749N (antibody, V domains shown, also called H1M749N; H1M749) VH: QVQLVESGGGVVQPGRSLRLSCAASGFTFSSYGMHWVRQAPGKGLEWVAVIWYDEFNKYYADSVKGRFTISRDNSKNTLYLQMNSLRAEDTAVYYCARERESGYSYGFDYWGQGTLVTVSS VL: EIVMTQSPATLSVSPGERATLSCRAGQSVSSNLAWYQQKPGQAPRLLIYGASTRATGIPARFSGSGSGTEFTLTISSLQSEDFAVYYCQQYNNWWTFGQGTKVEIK and report it.
Result: 8.82

Task: Find the recorded pKd belonging to H2M750N (antibody, V domains shown) VH: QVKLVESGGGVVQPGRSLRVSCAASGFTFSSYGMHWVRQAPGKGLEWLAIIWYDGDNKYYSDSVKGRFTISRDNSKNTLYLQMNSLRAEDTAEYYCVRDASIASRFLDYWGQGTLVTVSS VL: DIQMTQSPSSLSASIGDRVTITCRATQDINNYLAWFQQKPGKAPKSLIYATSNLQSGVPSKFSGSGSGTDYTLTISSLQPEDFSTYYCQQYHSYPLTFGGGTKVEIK and report it.
Result: 8.83

Task: Find the recorded pKd belonging to H1H696P (antibody, V domains shown) VH: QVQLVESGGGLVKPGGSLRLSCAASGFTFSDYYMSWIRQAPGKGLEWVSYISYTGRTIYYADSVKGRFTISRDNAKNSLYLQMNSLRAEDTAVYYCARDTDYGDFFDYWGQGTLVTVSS VL: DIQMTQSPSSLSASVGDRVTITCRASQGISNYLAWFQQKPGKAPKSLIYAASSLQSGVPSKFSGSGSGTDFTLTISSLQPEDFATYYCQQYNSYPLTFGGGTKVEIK and report it.
Result: 9.45

Task: Find the recorded pKd belonging to H2M730N (antibody, V domains shown) VH: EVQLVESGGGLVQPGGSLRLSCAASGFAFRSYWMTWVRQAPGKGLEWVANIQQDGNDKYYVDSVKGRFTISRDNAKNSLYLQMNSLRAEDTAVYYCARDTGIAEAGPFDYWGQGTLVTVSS VL: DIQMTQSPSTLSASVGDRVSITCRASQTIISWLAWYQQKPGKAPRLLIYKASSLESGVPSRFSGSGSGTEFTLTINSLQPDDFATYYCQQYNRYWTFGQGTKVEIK and report it.
Result: 9.07

Note: attention shifts to another entry.
Task: Find the recorded pKd belonging to H1H744N (antibody, V domains shown) VH: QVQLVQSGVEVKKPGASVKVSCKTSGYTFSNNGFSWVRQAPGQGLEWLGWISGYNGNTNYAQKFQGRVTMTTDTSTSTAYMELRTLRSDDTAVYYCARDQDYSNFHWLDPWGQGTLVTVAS VL: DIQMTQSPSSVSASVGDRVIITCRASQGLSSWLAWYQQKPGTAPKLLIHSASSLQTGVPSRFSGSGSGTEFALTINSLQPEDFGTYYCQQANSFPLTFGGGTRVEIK and report it.
Result: 9.46
